Where do the numbers come from? From patent US20250250357A1.

Molecular target: T1, human MSLN-R1-his protein (human, UniProt Q13421 296-390)
T1 construct: Region 1 of human MSLN, His-tagged; also called human MSLN-R1 protein; hMSLN-R1-his; not shown: His tag
T1 chain: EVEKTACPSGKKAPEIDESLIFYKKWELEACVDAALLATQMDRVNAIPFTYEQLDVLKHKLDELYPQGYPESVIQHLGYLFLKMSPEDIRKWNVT
Experiment: ELISA, coated MSLN-R1;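 note: serially diluted chimeric antibodies bound to the coated, BSA-blocked plate for 2 h at 37 °C, with TMB colour read after acid stop and a negative control antibody alongside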
Measured OD450 at 0.01 nM, listed per entry for reference.
property: OD450 at 0.01 nM

>  <binder>
S009-F2.39.3 (antibody, human IgG1, kappa, V domains shown, Human-murine chimeric antibody, human IgG1/kappa constant regions) VH: QVQLQQPGTELVKPGASVKLSCKASGYTFTNYWMHWVKQRPGQGLEWIGNINPSSGDSYYNERFMSKAKMTVDKSSSTAYMQLSSLTSEDSAVYYCARSGGLWLAFWGPGTLVTVSA VL: DIVMTQSPSSLAMSVGQKVTMSCKSSQTLLNSVSQNNYLAWYQQKPGQSPTLLVYFASTRESGVPDRFIGGGSGTDFTLTISSVQAEDLADYFCQQHYRTPYTFGGGTNLEIKR

>  <value.measured>
0.05 OD450

$$$$
>  <binder>
S009-F2.13.3 (antibody, human IgG1, kappa, V domains shown, Human-murine chimeric antibody, human IgG1/kappa constant regions) VH: QVQLQQSGAELMKPGASVKLSCKATGYTFTGYWIEWVKQRPGHGLEWIGEILPGSGSTNYNEKFKGKATFTADTSSNTAYMQLSSLTTEDSAIYYCARAGAWFAYWGQGTLVTVSA VL: QIVLTQSPAIMSASLGERVTMTCTASSSVSSSYLHWYQQKPGSSPKLWTYSTSNLASGVPARFSGSGSGTSYSLTISSMEAEDAATYYCHQYHRSPWTFGGGTKLEIKR

>  <value.measured>
0.05 OD450

$$$$
>  <binder>
S009-F2.47.1 (antibody, human IgG1, kappa, V domains shown, Human-murine chimeric antibody, human IgG1/kappa constant regions) VH: QVQLQQPGAELVKPGASVKLSCKASGYTFTSYWMHWVKQRPGQGLEWIGMIHPNSGSTNYNEKFKSKATLTVDKSSSTAYMQLSSLTSEDSAVYYCARPVVPYWYFDVWGTGTTVTVSS VL: DIVMTQSQKFMSTTVGDRVSITCKASQNVGTAVAWYQQKPGQSPKLLIYSASNRYTGVPDRFTGSGSGTDFTLTISNMQSEDLADYFCQQSSSYPLTFGAGTKLELKR

>  <value.measured>
0.05 OD450

$$$$
>  <binder>
S009-F2.16.10 (antibody, human IgG1, kappa, V domains shown, Human-murine chimeric antibody, human IgG1/kappa constant regions) VH: QVQLQQPGAELIKPGASVKLSCKASGYTFTSYWMHWVKQRPGQGLEWIGIIHPNIGSTNYNERFKSKATLTVDKSSSTAYMQLSSLTSEDSAVYYCARRSSNYGDWYFDVWGTGTTVTVSS VL: DIVMTQSHRFMSTSVGDRVSITCKASQDVGTSVAWYQQKPGQSPKLLIYWASTQHTGVPDRFTGSGSGTDFTLTINNVQSEDLLDYFCQQYSSYPLTFGAGTKLELKR

>  <value.measured>
0.09 OD450

$$$$
